// provenance: PubChem BioAssay (NCI)

- Test system: NCI-H522 lung
- experiment_summary: NCI tumour cell line growth inhibition, 48 h
Measured GI50 accompanies every entry in the list below.
experimental_readout: GI50

compound | value_measured
CCN1CCN(Cc2ccc(NC(=O)Nc3nc(-c4cc(OC)c(OC)c(OC)c4)cs3)cc2C(F)(F)F)CC1 | 1.65 µM
NS(=O)(=O)c1ccc(N=Nc2c(O)[nH]c3ccc(C(=O)NCCCn4ccnc4)cc23)cc1 | > 25 µM
C[n+]1cccc(NC(=O)c2ccc3ccc4ccc(C(=O)Nc5ccc[n+](C)c5)nc4c3n2)c1 | 0.645 µM
CCOc1cc(Cl)c(C(C)NC(=O)c2cccc(OC)c2)cc1OCC (stereo not given) | 5.04 µM
O=S(=O)(NCCNc1nccc(-c2c(-c3ccc(F)cc3)nc3sccn23)n1)c1ccc(O)cc1 | 3.51 µM
Clc1nc(Cl)c2ncn(-c3ccccc3)c2n1 | 1.9 µM
CC(C)[C@@]12C[C@@H](OC(=O)COC(=O)c3ccccc3)[C@@](C)(O1)[C@@H]1CC[C@@H](C)[C@H]1[C@@H]2OC(=O)/C=C/c1ccccc1 | > 100 µM
NC(=O)c1c[nH]c2ncnc(N)c12 | > 100 µM
c1cc[n+](Cc2c3ccccc3cc3c2ccc2ccccc23)cc1 | 1.68 µM
N#CC1=C(N)N=C(N2CCOCC2)C(C#N)C12Nc1ccccc1S2 (stereo not given) | 17.6 µM
